System: ScN2a
Assay: Inhibition of scrapie prion formation in mouse ScN2a cell line relative to control
Assay type: functional, cell-based
Entries annotated with measured pEC50
pEC50 (log units): -log10 of the concentration in mol/L.

structurenotation=CC(C)(C)c1ccc(C(=O)NCCCN2CCN(CCCNc3ccnc4cc(Cl)ccc34)CC2)cc1 result=7.00

molecule O=C(c1ccc2ccccc2c1)N(CCCN1CCN(CCCNc2ccnc3cc(Cl)ccc23)CC1)CC1CC1 , pEC50 observed: 7.12

molecule O=C(NCCCN1CCN(CCCNc2ccnc3cc(Cl)ccc23)CC1)c1cccc(Oc2ccccc2)c1 , pEC50 observed: 6.70

---

Entries annotated with measured pEC50
Test system: ScN2a
Assay: Inhibition of scrapie prion formation in mouse ScN2a cell line relative to control
Assay type: functional, cell-based
pEC50 (log units): -log10 of the concentration in mol/L.

compound O=S(=O)(NCCCN1CCN(CCCNc2ccnc3cc(Cl)ccc23)CC1)c1ccc(Cl)cc1 , pEC50 observed: 6.60

compound O=C(NCCCN1CCN(CCCNc2ccnc3cc(Cl)ccc23)CC1)C1c2ccccc2Oc2ccccc21 , pEC50 observed: 7.00

compound COc1ccc(C(=O)NCCCN2CCN(CCCNc3ccnc4cc(Cl)ccc34)CC2)cc1 , pEC50 observed: 7.00

compound O=C(NCCCN1CCN(CCCNc2ccnc3cc(Cl)ccc23)CC1)c1ccncc1 , pEC50 observed: 5.52

compound CCN(CC)CCCC(C)Nc1ccnc2cc(Cl)ccc12 (stereo not given) , pEC50 observed: 5.40
